Give EC50 for every item shown.
Target: T1, hCSF1R ECD.506-Fc (human)
T1 construct: also called human CSF1R ECD-Fc fusion protein; human CSF1R ECD
T1 sequence (chain, as listed by the source limits assumed): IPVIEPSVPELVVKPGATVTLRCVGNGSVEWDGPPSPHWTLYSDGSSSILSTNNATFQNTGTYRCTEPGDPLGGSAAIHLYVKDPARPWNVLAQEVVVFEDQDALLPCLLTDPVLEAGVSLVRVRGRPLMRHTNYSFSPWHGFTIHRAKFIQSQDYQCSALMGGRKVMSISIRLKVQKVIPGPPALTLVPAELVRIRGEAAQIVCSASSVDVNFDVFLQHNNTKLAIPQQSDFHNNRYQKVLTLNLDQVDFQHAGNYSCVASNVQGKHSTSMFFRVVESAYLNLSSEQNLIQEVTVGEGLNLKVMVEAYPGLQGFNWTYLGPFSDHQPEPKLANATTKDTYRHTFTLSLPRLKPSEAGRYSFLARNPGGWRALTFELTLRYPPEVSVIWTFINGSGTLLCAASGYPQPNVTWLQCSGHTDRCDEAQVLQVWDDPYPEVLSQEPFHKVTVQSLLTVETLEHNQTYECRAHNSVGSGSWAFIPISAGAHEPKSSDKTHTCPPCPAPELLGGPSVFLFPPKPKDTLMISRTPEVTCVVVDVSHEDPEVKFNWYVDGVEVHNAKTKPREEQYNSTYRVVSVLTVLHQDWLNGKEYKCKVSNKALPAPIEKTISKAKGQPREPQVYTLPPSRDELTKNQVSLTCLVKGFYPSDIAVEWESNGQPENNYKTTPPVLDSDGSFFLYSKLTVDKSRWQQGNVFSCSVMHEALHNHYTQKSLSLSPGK
Assay: ELISA, plate coated with human CSF1R ECD-Fc
Don't forget the unit after the value.

Worked cases, answers included:
Binder	Result
h0302-L0H2 (antibody, human IgG4 S228P, kappa, V domains shown, also called Ab10; huAb 0302-L0H2) VH: QVQLVQSGAEVKKPGSSVKVSCKASGYTFSDFNIHWVRQAPGQGLEWIGYINPYTDVTVYNEKFKGRATLTSDKSTSTAYMELSSLRSEDTAVYYCASYFDGTFDYALDYWGQGTLVTVSS VL: EIVLTQSPATLSLSPGERATLSCRASESVDNYGLSFMNWYQQKPGQAPRLLIYTASNLESGIPARFSGSGSGTDFTLTISSLEPEDFAVYYCQQSKELPWTFGQGTKVEIKR	0.0179 mg/L
cAb 0311 (antibody, human IgG4 S228P, kappa, V domains shown) VH: EIQLQQSGPDLMKPGASVKMSCKASGYIFTDYNMHWVKQNQGKSLEWMGEINPNNGVVVYNQKFKGTTTLTVDKSSSTAYMDLHSLTSEDSAVYYCTRALYHSNFGWYFDSWGKGTTLTVSS VL: DIVLTQSPASLAVSLGQRATISCKASQSVDYDGDSHMNWYQQKPGQPPKLLIYTASNLESGIPARFSGSGSGADFTLTIHPVEEEDAATYYCQQGNEDPWTFGGGTRLEIKR	0.0176 mg/L
h0302-L1H2 (antibody, human IgG4 S228P, kappa, V domains shown, also called Ab11; huAb 0302-L1H2) VH: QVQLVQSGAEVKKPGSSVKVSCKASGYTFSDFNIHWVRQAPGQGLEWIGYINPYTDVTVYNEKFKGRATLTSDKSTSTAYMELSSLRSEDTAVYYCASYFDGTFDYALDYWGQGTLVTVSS VL: EIVLTQSPATLSLSPGERATLSCRASESVDNYGLSFMNWYQQKPGQAPRLLIYTASNLESGIPARFSGSGSRTDFTLTISSLEPEDFAVYYCQQSKELPWTFGQGTKVEIKR	0.0221 mg/L
h0311-L1H1 (antibody, human IgG4 S228P, kappa, V domains shown, also called Ab14; huAb 0311-L1H1) VH: QVQLVQSGAEVKKPGSSVKVSCKASGYIFTDYNMHWVRQAPGQGLEWMGEINPNNGVVVYNQKFKGRVTITVDKSTSTAYMELSSLRSEDTAVYYCTRALYHSNFGWYFDSWGQGTLVTVSS VL: DIVLTQSPATLSLSPGERATLSCKASQSVDYDGDSHMNWYQQKPGQAPRLLIYTASNLESGIPARFSGSGSGADFTLTISSLEPEDFAVYYCQQGNEDPWTFGQGTKVEIKR	0.0143 mg/L

Let's switch to this binder now.
## Input Please look up its EC50: h0302-L1H1 (antibody, human IgG4 S228P, kappa, V domains shown, also called Ab8; huAb 0302-L1H1) VH: QVQLVQSGAEVKKPGSSVKVSCKASGYTFSDFNIHWVRQAPGQGLEWMGYINPYTDVTVYNEKFKGRVTITSDKSTSTAYMELSSLRSEDTAVYYCASYFDGTFDYALDYWGQGTLVTVSS VL: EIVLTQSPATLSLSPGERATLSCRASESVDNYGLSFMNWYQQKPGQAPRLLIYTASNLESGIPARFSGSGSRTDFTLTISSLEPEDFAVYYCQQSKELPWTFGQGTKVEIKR
## Output 0.0214 mg/L
